Provenance of the data: patent US20210269549A1

target.desc: T1, human SAS1B (Homo sapiens, UniProt Q6HA08)
T1 construct: made in house; host or cells: E. coli
T1 sequence (Q6HA08 24-431): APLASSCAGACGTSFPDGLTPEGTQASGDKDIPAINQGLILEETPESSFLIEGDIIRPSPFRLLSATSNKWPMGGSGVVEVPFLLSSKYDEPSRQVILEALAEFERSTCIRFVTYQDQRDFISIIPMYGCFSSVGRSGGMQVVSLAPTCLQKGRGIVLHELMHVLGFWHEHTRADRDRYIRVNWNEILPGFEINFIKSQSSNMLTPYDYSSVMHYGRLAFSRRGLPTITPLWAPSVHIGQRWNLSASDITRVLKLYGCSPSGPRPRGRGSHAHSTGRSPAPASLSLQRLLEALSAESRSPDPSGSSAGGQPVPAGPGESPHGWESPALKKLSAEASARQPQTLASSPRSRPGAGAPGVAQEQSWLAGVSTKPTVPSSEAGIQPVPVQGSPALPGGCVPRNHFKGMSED
method.notes: Western blot of human SAS1B probed with anti-human SAS1B murine mAbs
Type: binding
property: Specificity in western blot for human SAS1B antigen in an E. coli protein background

molecule: SB6: mouse anti-human SAS1B monoclonal antibody, IgG2b; VH SEQ ID NO:16, VL SEQ ID NO:18 (antibody, listed as Mus musculus, V domains shown) VH: EVQLQQSGPELVKPGSSVKISCKPSGYTFTDYNMVWMKQSHGKSLEWIGAINPNNGGTTYNQKFKGKATLTVDKSSSTAYMELRSLTSEDSAVYYCAPNWDWFAYWGQGTLVTVSA VL: DVLMTQIPLSLPVSLGDQASISCRSSQSILHSNGNTYLEWYLQKPGQSPKLLIYKVSNRFSGVPDRFSGSGSGTDFTLKISRVEAEDLGVYYCFQGSHVPFTFGSGTKLEIK
reported: demonstrated specificity
--
molecule: SB4: mouse anti-human SAS1B monoclonal antibody, IgG2a; VH SEQ ID NO:16, VL SEQ ID NO:17 (antibody, listed as Mus musculus, V domains shown) VH: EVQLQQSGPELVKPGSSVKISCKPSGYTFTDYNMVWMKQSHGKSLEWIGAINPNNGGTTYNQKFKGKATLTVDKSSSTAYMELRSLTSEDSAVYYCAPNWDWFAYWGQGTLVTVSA VL: DVLMTQTPLSLPVSLGDQASISCRSSQSILHSNGNTYLEWYLQKPGQSPKLLIYKVSNRFSGVPDRFSGSGSGTDFTLKISRVEAEDLGVYYCFQGSHVPFTFGSGTKLEIK
reported: demonstrated specificity
--
molecule: SB3: mouse anti-human SAS1B monoclonal antibody, IgG2b; VH SEQ ID NO:14, VL SEQ ID NO:15 (antibody, listed as Mus musculus, V domains shown) VH: EVQLQQSGPELVKPGSSVKISCKASGYTFTDYNMVWVKQSHGKSLEWIGAVNPNNGGTSYNQKFKGKATLTVDKSSSTAYMELRSLTSEDSAVYYCVPNWDWFAYWGQGTLVTVSA VL: DVLMTQTPLSLPVSLGDQASISCRSSQSLVHSNGNTYLEWYLQKPGQSPNLLIYKVSNRFSGVPDRFSGSGSGTDFTLKISRVEAEDLGVYYCFQGSHVPFTFGSGTKLEIK
reported: demonstrated specificity
